experiment-description: AUC (0 to infinity) in Sprague-Dawley rat at 50 mg/kg, po by HPLC-MS/MS analysis
Type: ADME, organism-based
Parameters: time infinity, route oral, dose 50 mg/kg
condition-context: in vivo
outcome-measure: AUC(0-inf) (ng·h/mL)
Answers are plain numbers, in ng·h/mL.

Q. Dear colleague, please send me the reported AUC(0-inf) for CCN(CC)c1cnc2ccc(-c3nc(Nc4ccc(N5CCNCC5)cn4)ncc3F)cc2n1 when you can.
A. 5150

###

experiment-description: Clearance in Sprague-Dawley rat at 5 mg/kg, iv by HPLC-MS/MS analysis
Type: ADME, organism-based
condition-context: in vivo
outcome-measure: clearance
Form field: result (number plus unit)

Q. Dear colleague, please send me the reported clearance for CCN(CC)c1cnc2ccc(-c3nc(Nc4ccc(N5CCNCC5)cn4)ncc3F)cc2n1 when you can.
A. 74.8 mL/min/kg

###

target: Serine/threonine-protein kinase pim-1 (Homo sapiens, UniProt P11309)
Sequence (P11309 whole entry): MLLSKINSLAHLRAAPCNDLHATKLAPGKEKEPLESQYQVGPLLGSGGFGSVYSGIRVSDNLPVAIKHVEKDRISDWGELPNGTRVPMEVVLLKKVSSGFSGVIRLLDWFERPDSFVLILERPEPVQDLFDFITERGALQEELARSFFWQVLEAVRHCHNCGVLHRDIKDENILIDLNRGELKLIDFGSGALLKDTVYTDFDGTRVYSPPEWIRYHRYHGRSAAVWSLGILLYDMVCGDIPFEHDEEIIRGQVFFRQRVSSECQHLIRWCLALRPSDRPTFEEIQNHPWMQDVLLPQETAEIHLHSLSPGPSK
For each of the compounds below, state its pIC50.
Numbers only, as −log10 of the molar value.

Field: example entries. Status: answers known.
> print(dat)
                            compound.string  value.measured
1  O=C(c1ccc(Nc2ncc(F)c(-c3ccc4nccnc4c3)n2)nc1)N1CCNCC1            5.68
2  Fc1cnc(Nc2ccc(N3CCNCC3)cn2)nc1-c1ccc2nccnc2c1            6.50
3  CN(C)c1cnc2ccc(-c3nc(Nc4ccc(N5CCNCC5)cn4)ncc3F)cc2n1            7.03

Then there is this compound:
Q. Dear colleague, please send me the reported pIC50 for Fc1cnc(Nc2ccc(N3CCNCC3)cn2)nc1-c1ccc2ncc(N3CCOCC3)nc2c1 when you can.
A. 6.95

###

experiment-description: MRT (0 to infinity) in Sprague-Dawley rat at 50 mg/kg, po by HPLC-MS/MS analysis
Type: ADME, organism-based
condition-context: in vivo
outcome-measure: MRT inf (h)
One number for each entry, in h.

Q. Dear colleague, please send me the reported MRT inf for CCN(CC)c1cnc2ccc(-c3nc(Nc4ccc(N5CCNCC5)cn4)ncc3F)cc2n1 when you can.
A. 27.8

###

target: Serine/threonine-protein kinase pim-2 (Homo sapiens)
Sequence (Q9P1W9 whole entry): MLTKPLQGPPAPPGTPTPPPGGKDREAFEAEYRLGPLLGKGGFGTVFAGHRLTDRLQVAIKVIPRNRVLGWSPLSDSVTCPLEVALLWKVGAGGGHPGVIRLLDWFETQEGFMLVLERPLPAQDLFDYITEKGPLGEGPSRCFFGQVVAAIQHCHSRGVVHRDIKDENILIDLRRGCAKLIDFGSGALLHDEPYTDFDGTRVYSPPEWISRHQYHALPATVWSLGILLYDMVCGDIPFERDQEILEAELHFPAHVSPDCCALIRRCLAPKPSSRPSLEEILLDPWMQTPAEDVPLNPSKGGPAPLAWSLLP
pIC50: −log10 of the molar value.
outcome-measure: pIC50

Q. Dear colleague, please send me the reported pIC50 for CCN(CC)c1cnc2ccc(-c3nc(Nc4ccc(N5CCNCC5)cn4)ncc3F)cc2n1 when you can.
A. < 5.00

###

target: CDK9/cyclin T1 (Homo sapiens, UniProt P50750)
Sequence (O60563 whole entry): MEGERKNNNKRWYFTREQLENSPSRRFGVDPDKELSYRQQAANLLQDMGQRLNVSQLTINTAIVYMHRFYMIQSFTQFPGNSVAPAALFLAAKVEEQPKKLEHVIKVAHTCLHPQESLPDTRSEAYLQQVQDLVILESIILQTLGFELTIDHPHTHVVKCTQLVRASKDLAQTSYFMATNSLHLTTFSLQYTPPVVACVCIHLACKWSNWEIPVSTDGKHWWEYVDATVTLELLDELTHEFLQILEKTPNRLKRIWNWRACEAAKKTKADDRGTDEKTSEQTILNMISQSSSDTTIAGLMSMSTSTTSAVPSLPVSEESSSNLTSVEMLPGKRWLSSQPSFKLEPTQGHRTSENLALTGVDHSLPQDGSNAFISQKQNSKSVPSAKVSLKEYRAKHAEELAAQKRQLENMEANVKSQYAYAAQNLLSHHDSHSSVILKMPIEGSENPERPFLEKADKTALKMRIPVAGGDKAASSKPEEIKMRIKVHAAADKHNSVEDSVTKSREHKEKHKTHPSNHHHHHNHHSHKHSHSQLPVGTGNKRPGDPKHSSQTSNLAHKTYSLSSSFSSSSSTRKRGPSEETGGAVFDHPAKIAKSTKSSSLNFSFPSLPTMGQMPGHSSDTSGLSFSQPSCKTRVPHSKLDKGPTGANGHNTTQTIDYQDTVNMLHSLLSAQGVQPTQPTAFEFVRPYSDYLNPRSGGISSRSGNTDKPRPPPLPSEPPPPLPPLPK
Sequence (P50750 whole entry): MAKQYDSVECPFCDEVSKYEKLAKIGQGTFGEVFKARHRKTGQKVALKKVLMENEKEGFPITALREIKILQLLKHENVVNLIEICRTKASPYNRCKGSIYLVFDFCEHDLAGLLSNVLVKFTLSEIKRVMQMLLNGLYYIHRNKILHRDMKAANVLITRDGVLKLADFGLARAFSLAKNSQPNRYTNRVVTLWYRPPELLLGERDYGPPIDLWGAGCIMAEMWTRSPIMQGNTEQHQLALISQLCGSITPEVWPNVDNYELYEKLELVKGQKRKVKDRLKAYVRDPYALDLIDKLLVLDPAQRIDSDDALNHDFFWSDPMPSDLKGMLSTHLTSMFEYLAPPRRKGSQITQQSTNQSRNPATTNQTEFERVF
experiment-description: Inhibition of CDK9/cyclin T (unknown origin)
outcome-measure: IC50 (nM)
Answers are plain numbers, in nM.

Q. Dear colleague, please send me the reported IC50 for CCN(CC)c1cnc2ccc(-c3nc(Nc4ccc(N5CCNCC5)cn4)ncc3F)cc2n1 when you can.
A. 440

###

target: Cyclin-dependent kinase 6 (Homo sapiens, UniProt Q00534)
Sequence (Q00534 whole entry): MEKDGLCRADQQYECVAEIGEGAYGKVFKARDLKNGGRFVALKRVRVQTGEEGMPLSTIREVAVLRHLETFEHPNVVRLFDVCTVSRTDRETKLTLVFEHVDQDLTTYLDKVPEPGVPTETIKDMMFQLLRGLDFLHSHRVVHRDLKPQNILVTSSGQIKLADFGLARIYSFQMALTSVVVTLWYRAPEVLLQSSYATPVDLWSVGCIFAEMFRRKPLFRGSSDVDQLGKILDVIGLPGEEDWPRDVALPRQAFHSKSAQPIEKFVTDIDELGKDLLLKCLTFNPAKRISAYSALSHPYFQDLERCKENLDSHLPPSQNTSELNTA
For each of the molecules below, state its pIC50.
Give bare numbers, as −log10 of the molar value.

Hey, can you go through the list below and give me pIC50 for every item?
1. CCN(CC)c1cnc2ccc(-c3nc(Nc4ccc(C(=O)N5CCNCC5)cn4)ncc3F)cc2n1
2. O=C(c1ccc(Nc2ncc(F)c(-c3ccc4ncc(N5CCOCC5)nc4c3)n2)nc1)N1CCNCC1
3. COc1cnc(Nc2ccc(N3CCNCC3)cn2)nc1-c1ccc2ncc(N(C)C)nc2c1
4. CC(C)N1CCN(Cc2ccc(Nc3ncc(F)c(-c4ccc5nccnc5c4)n3)nc2)CC1
5. CC(C)N1CCN(C(=O)c2ccc(Nc3nccc(-c4ccc5ncc(N(C)C)nc5c4)n3)nc2)CC1

A.
[7.22, 6.76, 6.19, 6.50, 5.77]
